System: MZ1-PC;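 further: cell viability assay measuring growth inhibition of human MZ1-PC cells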
method: cells
Format: functional, cell-based, Homo sapiens
assay-context: Homo sapiens, MZ1-PC
Description: SANGER: Inhibition of human MZ1-PC cell growth in a cell viability assay.
pIC50: −log10 of the molar value.
The following compounds are shown together with reported pIC50 values.
test-readout: pIC50

>>> meas_value("O=c1cc(-c2cccc3c2Sc2ccccc2S3)oc(N2CCOCC2)c1")
"< 5.00"
>>> meas_value("CS(=O)(=O)CCNCc1ccc(-c2ccc3ncnc(Nc4ccc(OCc5cccc(F)c5)c(Cl)c4)c3c2)o1")
"< 5.70"
>>> meas_value("COc1cc([C@@H]2c3cc4c(cc3[C@@H](O[C@@H]3O[C@@H]5CO[C@@H](C)O[C@H]5[C@H](O)[C@H]3O)[C@H]3COC(=O)[C@H]23)OCO4)cc(OC)c1O [ETOPOSIDE]")
6.09
>>> meas_value("CO[C@H]1C[C@@H]2CC[C@@H](C)[C@@](O)(O2)C(=O)C(=O)N2CCCC[C@H]2C(=O)O[C@H]([C@H](C)C[C@@H]2CC[C@@H](O)[C@H](OC)C2)CC(=O)[C@H](C)/C=C(\\C)[C@@H](O)[C@@H](OC)C(=O)[C@H](C)C[C@H](C)/C=C/C=C/C=C/1C")
"< 7.00"

* * *

Test system: BFTC-909
method: cells
Type: functional, cell-based, Homo sapiens
assay-context: Homo sapiens, BFTC-909
Description: SANGER: Inhibition of human BFTC-909 cell growth in a cell viability assay.
pIC50: −log10 of the molar value.
test-readout: pIC50

>>> meas_value("Cn1cc(C2=C(c3ccc(Cl)cc3Cl)C(=O)NC2=O)c2ccccc21")
"< 5.00"
>>> meas_value("CCOc1nc(NC(=O)Cc2cc(OC)ccc2OC)cc(N)c1C#N")
"< 5.00"
>>> meas_value("COc1cc(F)c(F)c(Nc2ccc(I)cc2F)c1NS(=O)(=O)C1(CC(O)CO)CC1 (stereo unspecified)")
"< 5.30"
>>> meas_value("CN(C)C/C=C/C(=O)Nc1cc2c(Nc3ccc(F)c(Cl)c3)ncnc2cc1O[C@H]1CCOC1")
"< 6.30"
>>> meas_value("COc1ccc(C2=N[C@@H](c3ccc(Cl)cc3)[C@@H](c3ccc(Cl)cc3)N2C(=O)N2CCNC(=O)C2)c(OC(C)C)c1")
"< 5.10"
>>> meas_value("O=C(NOCC1CC1)c1ccc(F)c(F)c1Nc1ccc(I)cc1Cl")
"< 5.00"

* * *

Test system: GT3TKB;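 further: growth inhibition of the cell line, read out with a cell viability assay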
method: cells
Assay type: functional, cell-based, Homo sapiens
assay-context: Homo sapiens, GT3TKB
Description: SANGER: Inhibition of human GT3TKB cell growth in a cell viability assay.
pIC50: −log10 of the molar value.
The following compounds are shown together with reported pIC50 values.
test-readout: pIC50

>>> meas_value("CC(=O)O[C@@]12CO[C@@H]1C[C@H](O)[C@@]1(C)C(=O)[C@H](O)C3=C(C)[C@@H](OC(=O)[C@H](O)[C@@H](NC(=O)OC(C)(C)C)c4ccccc4)C[C@@](O)([C@@H](OC(=O)c4ccccc4)[C@H]21)C3(C)C")
9.63
>>> meas_value("COC(=O)CNC(=O)C(=O)OC")
3.62
>>> meas_value("Cc1cc(Nc2cc(N3CCN(C)CC3)nc(Sc3ccc(NC(=O)C4CC4)cc3)n2)n[nH]1")
5.89
>>> meas_value("Nc1ccn([C@@H]2O[C@H](CO)[C@@H](O)[C@@H]2O)c(=O)n1")
6.47

* * *

The following compounds are shown together with reported pIC50 values.
Tested on: NCI-H23;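 further: cell viability assay measuring growth inhibition of NCI-H23 cells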
method: cells
Assay type: functional, cell-based, Homo sapiens
assay-context: Homo sapiens, NCI-H23
Description: SANGER: Inhibition of human NCI-H23 cell growth in a cell viability assay.
pIC50: −log10 of the molar value.
test-readout: pIC50

>>> meas_value("COc1ccc(C2=N[C@@H](c3ccc(Cl)cc3)[C@@H](c3ccc(Cl)cc3)N2C(=O)N2CCNC(=O)C2)c(OC(C)C)c1 [NUTLIN-3]")
"< 5.10"
>>> meas_value("C=C1C(=O)O[C@@H]2C3O[C@]3(C)CC/C=C(\\C)CC[C@@H]12 (some centres undefined)")
"< 5.30"
>>> meas_value("Cc1ccc(Nc2nccc(N(C)c3ccc4c(C)n(C)nc4c3)n2)cc1S(N)(=O)=O [PAZOPANIB]")
"< 5.10"
>>> meas_value("CN(Cc1cnc2nc(N)nc(N)c2n1)c1ccc(C(=O)N[C@@H](CCC(=O)O)C(=O)O)cc1 [METHOTREXATE]")
"< 6.70"
>>> meas_value("Nc1ccn([C@@H]2O[C@H](CO)[C@@H](O)[C@@H]2O)c(=O)n1 [CYTARABINE]")
5.92
>>> meas_value("Cc1cnc(-c2cnc(NCCNc3ccc(C#N)cn3)nc2-c2ccc(Cl)cc2Cl)[nH]1 [LADUVIGLUSIB]")
"< 5.59"
>>> meas_value("Cn1cncc1[C@@](N)(c1ccc(Cl)cc1)c1ccc2c(c1)c(-c1cccc(Cl)c1)cc(=O)n2C [TIPIFARNIB]")
"< 4.80"
>>> meas_value("CCC(=O)N1CCN(c2ccc(-n3c(=O)ccc4cnc5ccc(-c6cnc7ccccc7c6)cc5c43)cc2C(F)(F)F)CC1 [TORIN1]")
7.07
>>> meas_value("COc1ccc(-c2ccc3c(N4CCOC[C@@H]4C)nc(N4CCOC[C@@H]4C)nc3n2)cc1CO [AZD-8055]")
5.81
